- Assayed target: enzyme I (phosphoenolpyruvate-protein-phosphatase, EC 2.7.3.9) of the bacterial phosphotransferase system (E. coli, UniProt P08839 1-575)
- Assay summary: cell-based or functional assay
Metric: inhibition IC50 (µM) of in vitro phosphotransferase activity

Completed entries (count: 3):
[
  {
    "Binder": "KKWHKRKK [peptide 8]",
    "Recorded measurement": "375 µM"
  },
  {
    "Binder": "SGRKSTRVHHWLLVL [peptide 15]",
    "Recorded measurement": "1380 µM"
  },
  {
    "Binder": "KKFALRK [peptide 2]",
    "Recorded measurement": "60 µM"
  }
]

Hi, could you look up inhibition IC50 (µM) of in vitro phosphotransferase activity for each item in my list?
1. KKFHLRK [peptide 1]
2. KKFHIRKR [peptide 9]
3. WHKR [peptide 12]
4. GLRFGKTRVHYLVLG [peptide 14]
5. WHKR [peptide 13]

1. 25 µM
2. 1200 µM
3. 410 µM
4. 650 µM
5. 500 µM
